- testTarget: pre-pro-insulin glargine
valueType: desThr (area %)
The figure you give is taken to be in area %; do not add the unit.

// known answers, use as guide
QUERY: What does the data say about its desThr? Entry: trypsin variant SEQ ID NO: 118 (protein) IVGGYTCAANSIPYQVSLNSGSHRCGGSLINSQWVVSAAHCYKPRIQVRLGEHNIHVLEGNEQFINAAKIITHPNFNGNTLDNDIMLIKLSSPATLNSHVATVSLPTSCAAAGTECLISGWGNTASSGSSMPSLLQCLKAPVLSDSSCKSSYPGQITGNMICVGFLEGGADACQGDSGGPVVCNGQLQGIVSSGYGCAQKNKPGVYTKVCNYVNWIQQTIAAN
RESULT: 1

QUERY: What does the data say about its desThr? Entry: trypsin variant SEQ ID NO: 19 (protein) IVGGYTCAANSIPYQVSLNSGSHRCGGSLINSQWVVSAAHCYKSRIQVRLGEHNIDVLEGNEQFINAAKIITHPNFNGNTLDNDIMLIKLSSPATLNSRVATVSLPRSCAAAGTECLISGWGNTCSSGSSYPSLLQCLKAPVLSDSSCKSSYPGQITGNMICVGFLEGGKDACQGDSGGPVVCNGQLQGIVSSGYGCAQKNKPGVYTKVCNYVNWIQQTIAAN
RESULT: 3.3

QUERY: What does the data say about its desThr? Entry: trypsin variant SEQ ID NO: 96 (protein) IVGGYTCAANSIPYQVSLNSGSHRCGGSLINSQWVVSAAHCYKPRIQVRLGEHNIDVLEGNEQFINAAKIITHPNFNPNTLDNDIMLIKLSSPATLNSHVATVSLPRSCAAAGTECLISGWGNTSSSGSSMPSLLQCLKAPVLSDSSCKSSYPGQITGNMICVGFLEGGADACQGDSGGPVVCNGQLQGIVSSGYGCAQKNKPGVYTKVCNYVNWIQQTIAAN
RESULT: 0.3

QUERY: What does the data say about its desThr? Entry: trypsin variant SEQ ID NO: 98 (protein) IVGGYTCAANSIPYQVSLNSGSHRCGGSLINSQWVVSAAHCYKPRIQVRLGEHNIHVLEGNEQFINAAKIITHPNFNPNTLDNDIMLIKLSSPATLNSAVATVSLPTSCAAAGTECLISGWGNTASSGSSMPSLLQCLKAPVLSDSSCKSSYPGQITGNMICVGFLEGGADSCQGDSGGPVVCNGQLQGIVSSGYGCAQKNKPGVYTKVCNYVNWIQQTIAAN
RESULT: 2.7

QUERY: What does the data say about its desThr? Entry: porcine trypsin variant no. 105 (SEQ ID NO: 105) (protein) IVGGYTCAANSIPYQVSLNSGSHRCGGSLINSQWVVSAAHCYKSRIQVRLGEHNIHVLEGNEQFINAAKIITHPNFNPNTLDNDIMLIKLSSPATLNSNVATVSLPTSCAAAGTECLISGWGNTASSGSSYPSLLQCLKAPVLSDSSCKSSYPGQITGNMICVGFLEGGADACQGDSGGPVVCNGQLQGIVSSGYGCAQKNKPGVYTKVCNYVNWIQQTIAAN
RESULT: 0.9

QUERY: What does the data say about its desThr? Entry: trypsin variant SEQ ID NO: 93 (protein) IVGGYTCAANSIPYQVSLNSGSHRCGGSLINSQWVVSAAHCYKSRIQVRLGEHNIDVLEGNEQFINAAKIITHPNFNPNTLDNDIMLIKLSSPATLNSNVATVSLPTSCAAAGTECLISGWGNTCSSGSSMPSLLQCLKAPVLSDSSCKSSYPGQITGNMICVGFLEGGADACQGDSGGPVVCNGQLQGIVSSGYGCAQKNKPGVYTKVCNYVNWIQQTIAAN
RESULT: 0.3

QUERY: What does the data say about its desThr? Entry: trypsin variant SEQ ID NO: 85 (protein) IVGGYTCAANSIPYQVSLNSGSHRCGGSLINSQWVVSAAHCYKPRIQVRLGEHNIHVLEGNEQFINAAKIITHPNFNPNTLDNDIMLIKLSSPATLNSHVATVSLPTSCAAAGTECLISGWGNTCSSGSSMPSLLQCLKAPVLSDSSCKSSYPGQITGNMICVGFLEGGKDACQGDSGGPVVCNGQLQGIVSSGYGCAQKNKPGVYTKVCNYVNWIQQTIAAN
RESULT: 0.2

QUERY: What does the data say about its desThr? Entry: trypsin variant SEQ ID NO: 91 (protein) IVGGYTCAANSIPYQVSLNSGSHRCGGSLINSQWVVSAAHCYKPRIQVRLGEHNIHVLEGNEQFINAAKIITHPNFNPNTLDNDIMLIKLSSPATLNSAVATVSLPTSCAAAGTECLISGWGNTSSSGSSMPSLLQCLKAPVLSDSSCKSSYPGQITGNMICVGFLEGGKDACQGDSGGPVVCNGQLQGIVSSGYGCAQKNKPGVYTKVCNYVNWIQQTIAAN
RESULT: 0.3

***
QUERY: What does the data say about its desThr? Entry: trypsin variant SEQ ID NO: 81 (protein) IVGGYTCAANSIPYQVSLNSGSHRCGGSLINSQWVVSAAHCYKSRIQVRLGEHNIHVLEGNEQFINAAKIITHPNFNPNTLDNDIMLIKLSSPATLNSHVATVSLPTSCAAAGTECLISGWGNTASSGSSMPSLLQCLKAPVLSDSSCKSSYPGQITGNMICVGFLEGGKDACQGDSGGPVVCNGQLQGIVSSGYGCAQKNKPGVYTKVCNYVNWIQQTIAAN
RESULT: 0.5

QUERY: What does the data say about its desThr? Entry: trypsin variant SEQ ID NO: 115 (protein) IVGGYTCAANSIPYQVSLNSGSHRCGGSLINSQWVVSAAHCYKPRIQVRLGEHNIHVLEGNEQFINAAKIITHPNFNGNTLDNDIMLIKLSSPATLNSNVATVSLPTSCAAAGTECLISGWGNTSSSGSSMPSLLQCLKAPVLSDSSCKSSYPGQITGNMICVGFLEGGKDACQGDSGGPVVCNGQLQGIVSSGYGCAQKNKPGVYTKVCNYVNWIQQTIAAN
RESULT: 0.6
